Catalogue of activity at 1 µM readings, one per entry.
- System under test: glucokinase (GK) enzyme (Homo sapiens, UniProt P35557)
- Sequence (P35557 1-465): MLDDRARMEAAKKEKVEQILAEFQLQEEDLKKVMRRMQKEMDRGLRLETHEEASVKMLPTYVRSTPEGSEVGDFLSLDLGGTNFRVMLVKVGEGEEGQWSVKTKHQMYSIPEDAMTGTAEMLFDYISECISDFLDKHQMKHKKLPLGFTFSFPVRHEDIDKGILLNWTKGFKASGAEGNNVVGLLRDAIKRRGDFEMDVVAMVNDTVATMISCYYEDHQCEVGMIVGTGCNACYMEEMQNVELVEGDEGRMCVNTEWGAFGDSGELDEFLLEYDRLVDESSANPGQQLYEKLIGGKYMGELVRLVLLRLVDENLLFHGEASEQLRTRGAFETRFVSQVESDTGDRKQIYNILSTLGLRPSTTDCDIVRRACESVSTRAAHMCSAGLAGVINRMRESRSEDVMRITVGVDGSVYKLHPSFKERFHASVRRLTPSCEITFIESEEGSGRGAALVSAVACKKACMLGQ
- Assay explanation: In-vitro glucokinase (GK) enzyme activation assay (coupled with glucose-6-phosphate dehydrogenase, absorbance at 340)
- Type: biochemical
- Condition context: compound 1 uM; glucose 2.5 mM, ATP 1 mM; read-out: % of GK activity wrt DMSO
Measured parameter: activity at 1 µM (%)

> print(dat)
                                    molecule  recorded.number
 1  C=CCCOc1cc(Oc2ccc(-c3nnc(C)o3)cc2)cc(C(=O)Nc2nccs2)c1              229
 2  C=CCOc1cc(Oc2ccc(-c3nnc(C)o3)cc2)cc(C(=O)Nc2ncc(C)s2)c1              184
 3  COC[C@H](C)Oc1cc(Oc2ccc(-c3nnc(C)o3)cc2)cc(C(=O)Nc2ncc(C#N)s2)c1              223
 4  Cc1nnc(-c2ccc(Oc3cc(OCC(C)C)cc(C(=O)Nc4nccs4)c3)cc2)o1              256
 5  COCC(C)Oc1cc(Oc2ccc(-c3nnc(C)o3)cc2)cc(C(=O)Nc2ncc(C)s2)c1 (stereo not drawn)              278
 6  C=CCCOc1cc(Oc2ccc(-c3nnc(C)o3)cc2)cc(C(=O)Nc2ncc(C)s2)c1              180
 7  COC[C@H](C)Oc1cc(Oc2ccc(-c3nnc(C)o3)cc2)cc(C(=O)Nc2ncc(C)s2)c1              258
 8  Cc1csc(NC(=O)c2cc(OCC3CCCCC3)cc(Oc3ccc(-c4nnc(C)o4)cc3)c2)n1              137
 9  Cc1nnc(-c2ccc(Oc3cc(OC(C)C4CC4)cc(C(=O)Nc4nccs4)c3)cc2)o1 (stereo not drawn)              313
10  COCC(C)Oc1cc(Oc2ccc(-c3nnc(C4CC4)o3)cc2)cc(C(=O)Nc2nccs2)c1 (stereo not drawn)              450
11  CCOC(=O)c1csc(NC(=O)c2cc(Oc3ccc(-c4nnc(C)o4)cc3)cc(OC(C)COC)c2)n1 (stereo not drawn)              188
12  COCC(C)Oc1cc(Oc2ccc(-c3nnc(C)o3)cc2)cc(C(=O)Nc2ncc(Br)s2)c1 (stereo not drawn)              271
13  COCC(C)Oc1cc(Oc2ccc(-c3nnc(CC(C)C)o3)cc2)cc(C(=O)Nc2nccs2)c1 (stereo not drawn)              323
14  COCC(C)Oc1cc(Oc2ccc(-c3nnc(C)o3)cc2)cc(C(=O)Nc2ncc(C(=O)O)s2)c1 (stereo not drawn)              149
15  COC(C)CCOc1cc(Oc2ccc(-c3nnc(C)o3)cc2)cc(C(=O)Nc2nccs2)c1 (stereo not drawn)              228
16  COCC(C)Oc1cc(Oc2cccc(-c3nnc(C)o3)c2)cc(C(=O)Nc2nccs2)c1 (stereo not drawn)              287
17  CCc1nnc(-c2ccc(Oc3cc(OC(C)COC)cc(C(=O)Nc4nccs4)c3)cc2)o1 (stereo not drawn)              384
18  COC[C@H](C)Oc1cc(Oc2ccc(-c3nnc(C)o3)cc2)cc(C(=O)Nc2nc(C)cs2)c1              405
19  CCOC(=O)Cc1csc(NC(=O)c2cc(Oc3ccc(-c4nnc(C)o4)cc3)cc(OC(C)COC)c2)n1 (stereo not drawn)              349
20  COCC(C)Oc1cc(Oc2ccc(-c3nnc(C)o3)cc2)cc(C(=O)Nc2nc(C)cs2)c1 (stereo not drawn)              370
21  Cc1nnc(-c2ccc(Oc3cc(OCC4CC4)cc(C(=O)Nc4nccs4)c3)cc2)o1              292
22  COCC(C)Oc1cc(Oc2ccc(-c3nnc(C)o3)cc2)cc(C(=O)Nc2nc(C(=O)O)cs2)c1 (stereo not drawn)              170
23  COCC(C)Oc1cc(Oc2ccc(-c3nnc(C)o3)cc2)cc(C(=O)Nc2nccs2)c1 (stereo not drawn)              309
24  COCC(C)Oc1ccc(Oc2ccc(-c3nnc(C)o3)cc2)cc1C(=O)Nc1nccs1 (stereo not drawn)             96.8
25  Cc1nnc(-c2ccc(Oc3cc(OCC4CCCCC4)cc(C(=O)Nc4nccs4)c3)cc2)o1              178
26  C=CCCOc1cc(Oc2ccc(-c3nnc(C)o3)cc2)cc(C(=O)Nc2nc(C)cs2)c1              176
27  CCOC(=O)c1cnc(NC(=O)c2cc(Oc3ccc(-c4nnc(C)o4)cc3)cc(OC(C)COC)c2)s1 (stereo not drawn)              144
